The entries below are paired with their reported EC50.
tested on: SARS-CoV-2-Nluc; test: microbe, parasite or virus in culture; type: cell-based; settings: Severe acute respiratory syndrome coronavirus 2, read-out: EC50 (µM) Replicate 2
metric: EC50

{"columns": ["compound", "val"],
 "data": [
  ["O=C(Nc1ccc([N+](=O)[O-])cc1Cl)c1cc(Cl)ccc1O [Niclosamide]", "0.48 µM"],
  ["COC(=O)N[C@H](C(=O)N[C@@H](Cc1ccccc1)[C@@H](O)CN(Cc1ccc(-c2ccccn2)cc1)NC(=O)[C@@H](NC(=O)OC)C(C)(C)C)C(C)(C)C", "> 10 µM"],
  ["COC(=O)N[C@H](C(=O)N1CC2(CC2)C[C@H]1c1ncc(-c2ccc3c(c2)C(F)(F)c2cc(-c4ccc5nc([C@@H]6[C@H]7CC[C@H](C7)N6C(=O)[C@@H](NC(=O)OC)C(C)C)[nH]c5c4)ccc2-3)[nH]1)C(C)C", "> 10 µM"],
  ["CC(C)OC(=O)[C@H](C)N[P@](=O)(OC[C@H]1O[C@@H](n2ccc(=O)[nH]c2=O)[C@](C)(F)[C@@H]1O)Oc1ccccc1", "> 10 µM"],
  ["CC(C)c1nc(CN(C)C(=O)N[C@H](C(=O)N[C@@H](Cc2ccccc2)C[C@H](O)[C@H](Cc2ccccc2)NC(=O)OCc2cncs2)C(C)C)cs1", "> 10 µM"],
  ["CCC(CC)COC(=O)[C@H](C)N[P@](=O)(OC[C@H]1O[C@@](C#N)(c2ccc3c(N)ncnn23)[C@H](O)[C@@H]1O)Oc1ccccc1", "0.12 µM"],
  ["Nc1nc(=O)n([C@@H]2CS[C@H](CO)O2)cc1F", "> 10 µM"],
  ["O=C1Nc2ccc(Cl)cc2[C@@](C#CC2CC2)(C(F)(F)F)O1", "> 10 µM"],
  ["Fc1ccccc1-c1nc2ccn(Cc3ccc(-c4ccc(C(F)(F)F)cc4C(F)(F)F)nn3)cc-2n1", "> 10 µM"],
  ["Nc1ccn([C@@H]2O[C@@](CO)(CCl)[C@@H](O)[C@H]2F)c(=O)n1", "> 10 µM"],
  ["NC(=O)c1ncn([C@@H]2O[C@H](CO)[C@@H](O)[C@H]2O)n1", "> 10 µM"],
  ["O=C1c2c(O)c(=O)ccn2N([C@@H]2c3ccccc3SCc3c2ccc(F)c3F)[C@@H]2COCCN12", "> 10 µM"],
  ["CC(C)OC(=O)[C@H](C)N[P@](=O)(OC[C@H]1O[C@@](C#N)(c2ccc3c(N)ncnn23)[C@](C)(O)[C@@H]1OC(=O)C(C)C)Oc1ccccc1", "> 10 µM"],
  ["COC[C@H]1C[C@@H](c2ncc(-c3ccc4c(c3)COc3cc5c(ccc6nc([C@@H]7CC[C@H](C)N7C(=O)[C@@H](NC(=O)OC)C(C)C)[nH]c65)cc3-4)[nH]2)N(C(=O)[C@H](NC(=O)OC)c2ccccc2)C1", "> 10 µM"],
  ["CC(C)CN(C[C@@H](O)[C@H](Cc1ccccc1)NC(=O)O[C@H]1CCOC1)S(=O)(=O)c1ccc(N)cc1", "> 10 µM"],
  ["CCC[C@@]1(CCc2ccccc2)CC(O)=C([C@H](CC)c2cccc(NS(=O)(=O)c3ccc(C(F)(F)F)cn3)c2)C(=O)O1", "8.76 µM"],
  ["Cc1cccc(C)c1OCC(=O)N[C@@H](Cc1ccccc1)[C@@H](O)C[C@H](Cc1ccccc1)NC(=O)[C@H](C(C)C)N1CCCNC1=O", "8.7 µM"],
  ["CC(C)c1nc(CN(C)C(=O)N[C@@H](CCN2CCOCC2)C(=O)N[C@H](CC[C@H](Cc2ccccc2)NC(=O)OCc2cncs2)Cc2ccccc2)cs1 [Cobicistat]", "2.88 µM"],
  ["Cc1cn2nc([C@@H]3CCCCN3C(=O)c3cc(Cl)ccc3NS(C)(=O)=O)cc2nc1N1CC[C@H](N)C1", "2.04 µM"],
  ["CC(C)(C)NC(=O)[C@@H]1C[C@@H]2CCCC[C@@H]2CN1C[C@@H](O)[C@H](Cc1ccccc1)NC(=O)[C@H](CC(N)=O)NC(=O)c1ccc2ccccc2n1", "9.17 µM"],
  ["Nc1ccn(C[C@@H](CO)OCP(=O)(O)O)c(=O)n1", "> 10 µM"],
  ["NC(=O)c1nc(F)c[nH]c1=O", "> 10 µM"],
  ["N#C[C@@]1(c2ccc3c(N)ncnn23)O[C@H](CO)[C@@H](O)[C@H]1O", "0.665 µM"]
]}

----------
assay: Cytotoxicity assay (CCK-8, 72 h) in Vero E6 cells; type: cell-based, African green monkey; conditions: African green monkey, Vero E6 cells, Vero; Concentration 0.00457247; two replicates; read-out: cell viability (% of DMSO control)

{"columns": ["compound", "output.unit", "viability at 72 h"],
 "data": [
  ["CCN(CC)CCCC(C)Nc1ccnc2cc(Cl)ccc12 (centres unmarked) [Chloroquine]", "%", 113],
  ["CCC(CC)COC(=O)[C@H](C)N[P@](=O)(OC[C@H]1O[C@@](C#N)(c2ccc3c(N)ncnn23)[C@H](O)[C@@H]1O)Oc1ccccc1 [Remdesivir]", "%", 102]
]}

----------
assay: Cytotoxicity assay (CCK-8, 72 h) in Vero E6 cells; assay type: cell-based, African green monkey; conditions: African green monkey, Vero E6 cells, Vero; Concentration 0.0137174; two replicates; read-out: cell viability (% of DMSO control)
Each entry below lists one item and its recorded viability at 72 h value.

{"columns": ["compound", "viability at 72 h / %"],
 "data": [
  ["CCC(CC)COC(=O)[C@H](C)N[P@](=O)(OC[C@H]1O[C@@](C#N)(c2ccc3c(N)ncnn23)[C@H](O)[C@@H]1O)Oc1ccccc1", 91.3],
  ["CCN(CC)CCCC(C)Nc1ccnc2cc(Cl)ccc12 (centres unmarked)", 100]
]}

----------
Listing of entries alongside the reported viability.
test: in vitro; details: human, cell viability (% of DMSO control), Concentration 3.33333

{"columns": ["compound", "viability [%]"],
 "data": [
  ["CCC(CC)COC(=O)[C@H](C)N[P@](=O)(OC[C@H]1O[C@@](C#N)(c2ccc3c(N)ncnn23)[C@H](O)[C@@H]1O)Oc1ccccc1", 101],
  ["CCN(CC)CCCC(C)Nc1ccnc2cc(Cl)ccc12 (centres unmarked)", 104]
]}

----------
experiment: Cytotoxicity assay (CCK-8, 72 h) in Vero E6 cells; assay type: cell-based, African green monkey; details: African green monkey, Vero E6 cells, Vero; Concentration 3.33333; two replicates; read-out: cell viability (% of DMSO control)
Recorded viability at 72 h by entry
metric: viability at 72 h (%)

{"columns": ["compound", "metric", "val"],
 "data": [
  ["CCN(CC)CCCC(C)Nc1ccnc2cc(Cl)ccc12 (centres unmarked) [Chloroquine]", "viability at 72 h", 75.3],
  ["CCC(CC)COC(=O)[C@H](C)N[P@](=O)(OC[C@H]1O[C@@](C#N)(c2ccc3c(N)ncnn23)[C@H](O)[C@@H]1O)Oc1ccccc1 [Remdesivir]", "viability at 72 h", 87.9]
]}

----------
assay: Cytotoxicity assay (CCK-8, 72 h) in Vero E6 cells; type: cell-based, African green monkey; settings: African green monkey, Vero E6 cells, Vero; Concentration 10; two replicates; read-out: cell viability (% of DMSO control)

{"columns": ["compound", "viability at 72 h"],
 "data": [
  ["CCN(CC)CCCC(C)Nc1ccnc2cc(Cl)ccc12 (centres unmarked)", "76.5%"],
  ["CCC(CC)COC(=O)[C@H](C)N[P@](=O)(OC[C@H]1O[C@@](C#N)(c2ccc3c(N)ncnn23)[C@H](O)[C@@H]1O)Oc1ccccc1", "68%"]
]}

----------
assay: in vitro; settings: human, cell viability (% of DMSO control), Concentration 0.123457
The entries below come with measured viability values attached.

{"columns": ["compound", "viability"],
 "data": [
  ["CCC(CC)COC(=O)[C@H](C)N[P@](=O)(OC[C@H]1O[C@@](C#N)(c2ccc3c(N)ncnn23)[C@H](O)[C@@H]1O)Oc1ccccc1 [Remdesivir]", "101%"],
  ["CCN(CC)CCCC(C)Nc1ccnc2cc(Cl)ccc12 (centres unmarked) [Chloroquine]", "105%"]
]}

----------
List of CC50 values.
assay: in vitro; conditions: human, CC50 (µM) Replicate 1

{"columns": ["molecule", "CC50"],
 "data": [
  ["CCC(CC)COC(=O)[C@H](C)N[P@](=O)(OC[C@H]1O[C@@](C#N)(c2ccc3c(N)ncnn23)[C@H](O)[C@@H]1O)Oc1ccccc1 [Remdesivir]", "29 µM"],
  ["N#C[C@@]1(c2ccc3c(N)ncnn23)O[C@H](CO)[C@@H](O)[C@H]1O [GS-441524]", "> 50 µM"],
  ["COC[C@H]1C[C@@H](c2ncc(-c3ccc4c(c3)COc3cc5c(ccc6nc([C@@H]7CC[C@H](C)N7C(=O)[C@@H](NC(=O)OC)C(C)C)[nH]c65)cc3-4)[nH]2)N(C(=O)[C@H](NC(=O)OC)c2ccccc2)C1 [Velpatasvir]", "> 50 µM"],
  ["CC[C@@H]1C[C@]1(NC(=O)[C@@H]1C[C@@H](Oc2cc(-c3csc(NC(C)C)n3)nc3c(Cl)c(OCCN4CCOCC4)ccc23)CN1C(=O)[C@@H](NC(=O)O[C@@H]1C[C@@H]2C[C@@H]2C1)C(C)(C)C)C(=O)O [GS-9451]", "> 50 µM"],
  ["COC(=O)N[C@H](C(=O)N[C@@H](Cc1ccccc1)[C@@H](O)CN(Cc1ccc(-c2ccccn2)cc1)NC(=O)[C@@H](NC(=O)OC)C(C)(C)C)C(C)(C)C [Atazanavir]", "> 50 µM"],
  ["CCOC(=O)/C=C/[C@H](C[C@@H]1CCNC1=O)NC(=O)[C@@H](CC(=O)[C@@H](NC(=O)c1cc(C)on1)C(C)C)Cc1ccc(F)cc1 [Rupintrivir]", "> 50 µM"],
  ["O=C1c2c(O)c(=O)ccn2N([C@@H]2c3ccccc3SCc3c2ccc(F)c3F)[C@@H]2COCCN12 [Baloxavir]", "46 µM"],
  ["Cc1cccc(C)c1OCC(=O)N[C@@H](Cc1ccccc1)[C@@H](O)C[C@H](Cc1ccccc1)NC(=O)[C@H](C(C)C)N1CCCNC1=O [Lopinavir]", "29.8 µM"]
]}
